This collection of values is drawn from PubChem BioAssay (NCI).

test system: U251 CNS; experiment: NCI tumour cell line growth inhibition, 48 h
Here, each record is paired with measured TGI data.
Measure name: TGI

[
  {
    "Compound": "O=C(O)c1ccc(Nc2c3ccccc3nc3ccccc23)cc1",
    "Measure name": "TGI",
    "Recorded value": "> 100 µM"
  },
  {
    "Compound": "Cc1ccc(S(=O)(=O)N(CC(=O)O)c2ccccc2)cc1",
    "Measure name": "TGI",
    "Recorded value": "> 100 µM"
  },
  {
    "Compound": "CCCCC1=NNC(=O)C1",
    "Measure name": "TGI",
    "Recorded value": "> 100 µM"
  },
  {
    "Compound": "COc1ccc2c(c1)CCCC(Br)C2=O (stereo unspecified)",
    "Measure name": "TGI",
    "Recorded value": "29.6 µM"
  },
  {
    "Compound": "CC(C)(Cl)C(Br)CCC(C)(Cl)C(Br)CBr (stereo unspecified)",
    "Measure name": "TGI",
    "Recorded value": "69.5 µM"
  },
  {
    "Compound": "CC(C)c1ccccc1NC(=O)CCc1n[nH]c(=S)o1",
    "Measure name": "TGI",
    "Recorded value": "> 100 µM"
  },
  {
    "Compound": "CN(C)c1ccc(C(C=C2c3ccccc3Sc3ccccc32)=C(C#N)C#N)cc1",
    "Measure name": "TGI",
    "Recorded value": "> 100 µM"
  },
  {
    "Compound": "CC(C)c1ccc2c(c1)CC[C@@H]1[C@@](C)(C(=O)O)CCC[C@]21C",
    "Measure name": "TGI",
    "Recorded value": "18.3 µM"
  },
  {
    "Compound": "CCOC(=O)c1c(-c2ccc(OC)cc2)c(C#N)c(=S)n(C2OC(COC(C)=O)C(OC(C)=O)C(OC(C)=O)C2OC(C)=O)c1-c1ccccc1 (stereo unspecified)",
    "Measure name": "TGI",
    "Recorded value": "> 100 µM"
  },
  {
    "Compound": "Cc1cc(N)c(C)c2c1[nH]c1ccc(O)cc12",
    "Measure name": "TGI",
    "Recorded value": "> 100 µM"
  },
  {
    "Compound": "N#CC(N)(C(=O)CCC(=O)Nc1cccc(Cl)c1)c1ccc(Cl)cc1 (stereo unspecified)",
    "Measure name": "TGI",
    "Recorded value": "> 100 µM"
  }
]

###

Here, each record is paired with measured TGI data.
tested on: RPMI-8226 leukemia; experiment: NCI tumour cell line growth inhibition, 48 h

[
  {
    "Compound": "O=c1cnn(C2OC(C(O)CO)C(O)C2O)c(=O)[nH]1 (stereo not given)",
    "TGI": "> 100 µM"
  },
  {
    "Compound": "S=C(Nc1ccccc1)N(/N=C/C=C/c1ccccc1)c1nnc(-c2ccccc2)c(-c2ccccc2)n1",
    "TGI": "> 100 µM"
  },
  {
    "Compound": "N=C1/C(=C/c2ccc(F)cc2)C(=O)N=C2SC=NN12",
    "TGI": "> 100 µM"
  },
  {
    "Compound": "O=C1C(Cl)N(c2ccc(Cl)cc2)C1c1c[nH]c2ccccc12 (stereo not given)",
    "TGI": "> 100 µM"
  },
  {
    "Compound": "CCOC(=O)c1c(NC(=O)c2cccs2)sc2c1CCCC2",
    "TGI": "> 100 µM"
  },
  {
    "Compound": "CC(C)=CCNc1ncnc2c1ncn2C1OC(CO)C(O)C1O (stereo not given)",
    "TGI": "25.2 µM"
  },
  {
    "Compound": "FC(F)(F)c1ccc(N=C/C=C(/Nc2ccc(C(F)(F)F)cc2)c2ccc(Cl)cc2)cc1",
    "TGI": "84.8 µM"
  },
  {
    "Compound": "C=C1C(=O)O[C@@H]2C[C@@H]1CC/C(C)=C/CC/C(C)=C/CC[C@@]2(C)O",
    "TGI": "5.09 µM"
  },
  {
    "Compound": "Cc1cc2c(cc1Cl)SC(NS(=O)(=O)c1ccc(Cl)cc1)=NS2(=O)=O",
    "TGI": "> 100 µM"
  },
  {
    "Compound": "CS(=O)(=O)O[C@H]1CN2C[C@@H](O)[C@@H](O)[C@H]2[C@H]1CO",
    "TGI": "> 100 µM"
  }
]
